Origin of the recorded values: paper PMC7226839

# reported IC50; entries follow
Tested on: Mz-ChA-1 cholangiocarcinoma cells
Test: cells
Conditions: Homo sapiens, read-out: IC50 (CL), Mz-ChA-1, double repeated 2 h exposure + 72 h recovery; combination with 50 µM β-caryophyllene
Counter-ions that a name gives are not always drawn.
quantity: IC50 (µM)

[[record]]
compound = "C=C1CC/C=C(\\C)CC[C@@H]2[C@@H]1CC2(C)C [β-Caryophyllene, β-caryophyllene]"
assay_system = "Mz-ChA-1 cholangiocarcinoma cells"
recorded_number = 140

[[record]]
compound = "COc1cccc2c1C(=O)c1c(O)c3c(c(O)c1C2=O)C[C@@](O)(C(=O)CO)C[C@@H]3O[C@H]1C[C@H](N)[C@H](O)[C@H](C)O1 [Doxorubicin, doxorubicin hydrochloride]"
assay_system = "Mz-ChA-1 cholangiocarcinoma cells"
recorded_number = 11.6


----------
Test system: H69 noncancerous cholangiocytes
Assay: MTT cytotoxicity and combination assay
Assay type: cell-based
Conditions: 72 h, H69, 72 h exposure; combination with 50 µM β-caryophyllene
Structures can show the parent of a compound that is named as a salt.
quantity: IC50 (µM)

[[record]]
compound = "C=C1CC/C=C(\\C)CC[C@@H]2[C@@H]1CC2(C)C"
assay_system = "H69 noncancerous cholangiocytes"
unit_abbrev = "µM"
recorded_number = 146

[[record]]
compound = "COc1cccc2c1C(=O)c1c(O)c3c(c(O)c1C2=O)C[C@@](O)(C(=O)CO)C[C@@H]3O[C@H]1C[C@H](N)[C@H](O)[C@H](C)O1 [Doxorubicin, doxorubicin hydrochloride]"
assay_system = "H69 noncancerous cholangiocytes"
unit_abbrev = "µM"
recorded_number = 4

